Please respond with reported MCHC for every item in the list.
organism: Rattus norvegicus; assay: Open TG-GATES - Regimen: Daily Repeat; type: toxicity, organism-based, Sprague-Dawley; design: regimen Daily Repeat, gender Male, age 6 weeks; conditions: in vivo, po, 100 mg/kg, […], tissue Blood, route gavage, dose level Low, time 14 day
One number for each entry, in %.

// solved cases for MCHC follow
CCN1CCCC1CNC(=O)c1cc(S(N)(=O)=O)ccc1OC (centres undefined) [SULPIRIDE] = 33.2
O=C(O)c1cccnc1 = 34
CC(C)(S)[C@@H](N)C(=O)O = 34

Next up:
Quick note, MCHC for "O=C(N[C@H](CO)[C@H](O)c1ccc([N+](=O)[O-])cc1)C(Cl)Cl" landed at 32.5

---

organism: Rattus norvegicus; assay: Open TG-GATES - Regimen: Single; assay type: toxicity, organism-based, Sprague-Dawley; parameters: regimen Single, gender Male, age 6 weeks; conditions: in vivo, po, 0 mg/kg, 24 h, tissue Blood, route gavage, dose level Control
measurement.kind: Eos (%)
Answers are plain numbers, in %.

// solved cases for Eos follow
CCSCC[C@H](N)C(=O)O [ETHIONINE] = 1
O=C(O)c1cccnc1 [NIACIN] = 1
CCN1CCCC1CNC(=O)c1cc(S(N)(=O)=O)ccc1OC (stereo unspecified) [SULPIRIDE] = 1
Oc1ncnc2[nH]ncc12 [ALLOPURINOL] = 0.8
Nc1nc(N)c2nc(-c3ccccc3)c(N)nc2n1 = 1

Below are 7 compounds. Give each one its Eos.
1. CCc1oc2ccccc2c1C(=O)c1cc(I)c(O)c(I)c1 [BENZIODARONE]
2. CCC(C)(C)C(=O)O[C@H]1C[C@@H](C)C=C2C=C[C@H](C)[C@H](CC[C@@H]3C[C@@H](O)CC(=O)O3)[C@H]21 [SIMVASTATIN]
3. CN1C(=O)OC(C)(C)C1=O [TRIMETHADIONE]
4. C#C[C@]1(O)CC[C@H]2[C@@H]3CCc4cc(O)ccc4[C@H]3CC[C@@]21C [ETHINYL ESTRADIOL]
5. C[C@]12CCC(=O)C=C1CC[C@@H]1[C@@H]2CC[C@@]2(C)[C@H]1CC[C@]2(C)O [METHYLTESTOSTERONE]
6. O=C(N[C@H](CO)[C@H](O)c1ccc([N+](=O)[O-])cc1)C(Cl)Cl [CHLORAMPHENICOL]
7. C[C@](N)(Cc1ccc(O)c(O)c1)C(=O)O [METHYLDOPA]

Response given:
1: 1.2; 2: 1; 3: 1; 4: 1; 5: 1; 6: 1; 7: 1

Below are 4 compounds. Give each one its Eos.
1. CC(=N)S [THIOACETAMIDE]
2. CC(C)(S)[C@@H](N)C(=O)O [PENICILLAMINE]
3. CC(C)C(=O)Nc1ccc([N+](=O)[O-])c(C(F)(F)F)c1 [FLUTAMIDE]
4. CC(=O)Oc1cc(C(C)C)c(OCCN(C)C)cc1C [MOXISYLYTE]

Response given:
1: 0.8; 2: 1; 3: 1; 4: 0.8

---

species: Rattus norvegicus; test: Open TG-GATES - Regimen: Daily Repeat; assay type: toxicity, organism-based, Sprague-Dawley; parameters: regimen Daily Repeat, gender Male, age 6 weeks; conditions: in vivo, po, 1000 mg/kg, […], tissue Blood, route gavage, dose level High, time 14 day
measurement.kind: PT (s)
One number for each entry, in s.

// solved cases for PT follow
CC(C)(S)[C@@H](N)C(=O)O = 15.3
CCN1CCCC1CNC(=O)c1cc(S(N)(=O)=O)ccc1OC (centres undefined) [SULPIRIDE] = 13.2
O=C(N[C@H](CO)[C@H](O)c1ccc([N+](=O)[O-])cc1)C(Cl)Cl = 14.9

Quick note, PT for "O=C(O)c1cccnc1" landed at 15.2

---

Please respond with reported KIDNEY_TOTAL for every item in the list.
species: Rattus norvegicus; assay: Open TG-GATES - Regimen: Single; type: toxicity, organism-based, Sprague-Dawley; design: regimen Single, gender Male, age 6 weeks; conditions: in vivo, po, 0 mg/kg, 9 h, tissue Kidney, route gavage, dose level Control
One number for each entry, in g.

Below are 8 molecules. Give each one its KIDNEY_TOTAL.
1. CCN1CCCC1CNC(=O)c1cc(S(N)(=O)=O)ccc1OC (stereo not given) [SULPIRIDE]
2. CCSCC[C@H](N)C(=O)O
3. CC(C)C(=O)Nc1ccc([N+](=O)[O-])c(C(F)(F)F)c1 [FLUTAMIDE]
4. O=C(N[C@H](CO)[C@H](O)c1ccc([N+](=O)[O-])cc1)C(Cl)Cl
5. CC(C)(S)[C@@H](N)C(=O)O
6. CCC(C)(C)C(=O)O[C@H]1C[C@@H](C)C=C2C=C[C@H](C)[C@H](CC[C@@H]3C[C@@H](O)CC(=O)O3)[C@H]21
7. CC(=O)Oc1cc(C(C)C)c(OCCN(C)C)cc1C
8. Oc1ncnc2[nH]ncc12

Response given:
[1.8, 1.9, 1.9, 1.9, 1.8, 1.8, 1.9, 1.9]

Below are 2 molecules. Give each one its KIDNEY_TOTAL.
1. CN1C(=O)OC(C)(C)C1=O
2. CCc1oc2ccccc2c1C(=O)c1cc(I)c(O)c(I)c1

Response given:
1. 1.7
2. 1.9

---

Please respond with reported IP for every item in the list.
organism: Rattus norvegicus; assay: Open TG-GATES - Regimen: Daily Repeat; type: toxicity, organism-based, Sprague-Dawley; design: regimen Daily Repeat, gender Male, age 6 weeks; conditions: in vivo, po, 1000 mg/kg, […], tissue Plasma, route gavage, dose level High, time 14 day
Give bare numbers, in mg/dL.

// solved cases for IP follow
CCN1CCCC1CNC(=O)c1cc(S(N)(=O)=O)ccc1OC (centres undefined) [SULPIRIDE] = 7.9
CC(C)(S)[C@@H](N)C(=O)O = 6.7
O=C(O)c1cccnc1 = 7

Quick note, IP for "O=C(N[C@H](CO)[C@H](O)c1ccc([N+](=O)[O-])cc1)C(Cl)Cl" landed at 7.2

---

species: Rattus norvegicus; assay: Open TG-GATES - Regimen: Daily Repeat; format: toxicity, organism-based, Sprague-Dawley; design: regimen Daily Repeat, gender Male, age 6 weeks; settings: in vivo, po, 300 mg/kg, […], tissue Plasma, route gavage, dose level Middle, time 28 day
measurement.kind: DBIL
Provide the measurement as a number trailed by its unit.

CC(C)(S)[C@@H](N)C(=O)O [PENICILLAMINE] = 0.008 mg/dL

Below are 3 compounds. Give each one its DBIL.
1. CCN1CCCC1CNC(=O)c1cc(S(N)(=O)=O)ccc1OC (centres undefined) [SULPIRIDE]
2. O=C(O)c1cccnc1 [NIACIN]
3. O=C(N[C@H](CO)[C@H](O)c1ccc([N+](=O)[O-])cc1)C(Cl)Cl [CHLORAMPHENICOL]

Response given:
0.006 mg/dL
0 mg/dL
0.024 mg/dL

---

organism: Rattus norvegicus; test: Open TG-GATES - Regimen: Daily Repeat; assay type: toxicity, organism-based, Sprague-Dawley; parameters: regimen Daily Repeat, gender Male, age 6 weeks; details: in vivo, po, 0 mg/kg, […], tissue Plasma, route gavage, dose level Control, time 7 day
Please respond with reported Ca for every item in the list.
Give bare numbers, in mg/dL.

// solved cases for Ca follow
CC(C)(S)[C@@H](N)C(=O)O = 10.9
C[C@](N)(Cc1ccc(O)c(O)c1)C(=O)O = 11
O=C(O)c1cccnc1 = 10.8
CCc1oc2ccccc2c1C(=O)c1cc(I)c(O)c(I)c1 = 10.6
O=C(N[C@H](CO)[C@H](O)c1ccc([N+](=O)[O-])cc1)C(Cl)Cl = 11.3
Nc1nc(N)c2nc(-c3ccccc3)c(N)nc2n1 = 11.1
C[C@]12CCC(=O)C=C1CC[C@@H]1[C@@H]2CC[C@@]2(C)[C@H]1CC[C@]2(C)O = 11
CC(C)C(=O)Nc1ccc([N+](=O)[O-])c(C(F)(F)F)c1 [FLUTAMIDE] = 10.7
CC(=O)Oc1cc(C(C)C)c(OCCN(C)C)cc1C = 10.7

Next up:
Quick note, Ca for CCN1CCCC1CNC(=O)c1cc(S(N)(=O)=O)ccc1OC (stereo not given) [SULPIRIDE] landed at 10.8

---

Please respond with reported PL for every item in the list.
species: Rattus norvegicus; test: Open TG-GATES - Regimen: Daily Repeat; assay type: toxicity, organism-based, Sprague-Dawley; parameters: regimen Daily Repeat, gender Male, age 6 weeks; conditions: in vivo, po, 0 mg/kg, […], tissue Plasma, route gavage, dose level Control, time 14 day
One number for each entry, in mg/dL.

// solved cases for PL follow
CCC(C)(C)C(=O)O[C@H]1C[C@@H](C)C=C2C=C[C@H](C)[C@H](CC[C@@H]3C[C@@H](O)CC(=O)O3)[C@H]21 = 154.4
C[C@]12CCC(=O)C=C1CC[C@@H]1[C@@H]2CC[C@@]2(C)[C@H]1CC[C@]2(C)O = 144
CC(C)(S)[C@@H](N)C(=O)O = 155.6

Quick note, PL for "CCSCC[C@H](N)C(=O)O" landed at 144.6
